The following binders are listed with their measured optical density values.
ASSAY_TARGET: mouse ACVR2A (mouse, UniProt P27038 20-135, limits assumed); also: test concentration or dose not given here
Sequence (P27038 20-135 limits assumed): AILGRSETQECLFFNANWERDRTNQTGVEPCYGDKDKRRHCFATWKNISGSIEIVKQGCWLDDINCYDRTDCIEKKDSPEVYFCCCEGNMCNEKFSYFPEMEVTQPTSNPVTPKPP
METHOD_DESCRIPTION: ELISA
Give me the value, and tack the unit on after it.

Examples with their reported optical density follow.
1. 369_C06 (antibody, V domains shown, Group II) VH: EVQLLESGGGLVQPGGSLRLSCAASGFTFSSYSMHWVRQAPGKGLEWVSSINYNGGYKSYADSVKGRFTISRDNSKNTLYLQMNSLRAEDTAVYYCARAATWHDTHLDYWGQGTLVTVSS VL: DIQMTQSPSSLSASVGDRVTITCRASQSILSYVNWYQQKPGKAPKLLIYAATSRASGVPSRFSGSGSGTDFTLTISSLQPEDFATYYCQQSYDSPLTFGGGTKVEIK : 3.06 OD
2. 371_B11 (antibody, V domains shown, Group II) VH: EVQLLESGGGLVQPGGSLRLSCAASGFTFSSYSMHWVRQAPGKGLEWVASINYNSGYTSYADSVKGRFTISRDNSKNTLYLQMNSLRAEDTAVYYCARAATWHDTHLDYWGQGTLVTVSS VL: DIQMTQSPSSLSASVGDRVTITCRASQSILTYLNWYQQKPGKAPKLLIYAATSRASGVPSRFSGSGSGTDFTLTISSLQPEDFATYYCQQSYELPLTFGGGTKVEIK : 3.26 OD
3. 369_A12 (antibody, V domains shown, Group II) VH: EVQLLESGGGLVQPGGSLRLSCAASGFTFSSYSMHWVRQAPGKGLEWVASINYNSGYTGYADSVKGRFTISRDNSKNTLYLQMNSLRAEDTAVYYCARAATWHDTHLDYWGQGTLVTVSS VL: DIQMTQSPSSLSASVGDRVTITCRASQSILTYLNWYQQKPGKAPKLLIYAATSRHSGVPSRFSGSGSGTDFTLTISSLQPEDFATYYCQQSYDLPLTFGGGTKVEIK : 3.24 OD

Please find the next binder below.
Measured optical density, 369_B03 (antibody, V domains shown, Group I) VH: EVQLLESGGGLVQPGGSLRLSCAASGFTFSSYGMHWVRQAPGKGLEWVAGINYNGGYTSYADSVKGRFTISRDNSKNTLYLQMNSLRAEDTAVYYCARAANWHDTALDYWGQGTLVTVSS VL: DIQMTQSPSSLSASVGDRVTITCRASQSILTYVNWYQQKPGKAPKLVIYAATSLASGVPSRFSGSGSGTDFTLTISSLQPEDFATYYCQQSYELPLTFGGGTKVEIK : 3.31 OD
